// data source = patent US20230083012A1

Reported values of CC50 at 6 days for individual entries
assay: Cytotoxicity determination in HepG2.2.15 cells (CCK-8 cell viability); format: cell-based; conditions: human, 6 days treatment, CCK-8 assay, highest concentration 100 uM

Compound	CC50 at 6 days / µM
CCOC(=O)C1=C(CN2CC(F)(F)C3CN(CC(C)(C)C(=O)O)C(=O)C32)NC(c2nccs2)=N[C@H]1c1cccc(F)c1C (stereo partly drawn)	50
CCOC(=O)C1=C(CN2CC(F)(F)[C@H]3[C@@H]2CCN3C[C@H]2CC[C@H]2C(=O)O)NC(c2nccs2)=N[C@H]1c1cccc(F)c1C (single isomer, unassigned) [Compound 130B]	18.2
[2H]C1([2H])C[C@H]2[C@@H](N1CCC(C)(C)C(=O)O)C(F)(F)CN2CC1=C(C(=O)OCC)[C@H](c2cccc(F)c2C)N=C(c2nccs2)N1 (single isomer, unassigned)	24.8

====

Reported values of CC50 at 6 days for individual entries
experiment: Cytotoxicity determination in HepG2.2.15 cells (CCK-8 cell viability); type: cell-based; settings: human, 6 days treatment, CCK-8 assay, highest concentration 100 uM

Compound	CC50 at 6 days [µM]
CCOC(=O)C1=C(CN2CC(F)(F)[C@@H]3CN(C(=O)[C@@H]4C[C@@H]4C(=O)O)C[C@@H]32)NC(c2nccs2)=N[C@H]1c1cccc(F)c1C (single isomer, unassigned) [Compound 57B]	51.2
CCOC(=O)C1=C(CN2CC(F)C3C2CCN3CC(C)(C)C(=O)O)NC(c2nccs2)=N[C@H]1c1cccc(F)c1C (stereo partly drawn) [Compound 11]	37.3
CCOC(=O)C1=C(CN2CC(F)(F)[C@@H]3CN(CCC(C)(C)C(=O)O)C[C@@H]32)NC(c2nccs2)=N[C@H]1c1cccc(F)c1C (single isomer, unassigned) [Compound 17B]	72.8

====

Reported values of CC50 at 6 days for individual entries
assay: Cytotoxicity determination in HepG2.2.15 cells (CCK-8 cell viability); assay type: cell-based; conditions: human, 6 days treatment, CCK-8 assay, highest concentration 100 uM

Compound	CC50 at 6 days
CCOC(=O)C1=C(CN2CC(F)(F)[C@H]3[C@@H]2CCN3[C@H]2C[C@H](CC(=O)O)C2)NC(c2nccs2)=N[C@H]1c1cccc(F)c1C (single isomer, unassigned) [Compound 123B]	16.1 µM
CCOC(=O)C1=C(CN2CC(F)(F)[C@H]3[C@@H]2CCN3C[C@H](C)C(=O)O)NC(c2nccs2)=N[C@H]1c1ccc(F)cc1Cl (single isomer, unassigned) [Compound 135B]	36.3 µM
Cc1c(F)cccc1[C@@H]1N=C(c2nccs2)NC(CN2CC(F)(F)[C@H]3[C@@H]2CCN3CCC(C)(C)C(=O)O)=C1C(=O)OC(C)C (single isomer, unassigned)	12.7 µM
CCOC(=O)C1=C(CN2CC(F)(F)[C@@H]3[C@H]2CN(C(=O)C2CC2)N3CCC(C)(C)C(=O)O)NC(c2nccs2)=N[C@H]1c1cccc(F)c1C (single isomer, unassigned)	26 µM
CCOC(=O)C1=C(CN2C[C@@H](F)[C@@]3(F)C(=O)N(CC(C)(C)C(=O)O)C[C@@H]23)NC(c2nccs2)=N[C@H]1c1cccc(F)c1C (single isomer, unassigned) [Compound 204A]	88.9 µM
CCOC(=O)C1=C(CN2CC(F)(F)[C@H]3[C@@H]2CC2(CC2)N3CCC(C)(C)C(=O)O)NC(c2nccs2)=N[C@H]1c1cccc(F)c1C (single isomer, unassigned)	48.3 µM
CCOC(=O)C1=C(CN2CC(F)(F)[C@@H]3CNC[C@@H]32)NC(c2nccs2)=N[C@H]1c1cccc(F)c1C (single isomer, unassigned)	> 3.1 µM
CCOC(=O)C1=C(CN2CC(F)(F)[C@H]3[C@@H]2CCN3[C@H](C)CC(C)(C)C(=O)O)NC(c2nccs2)=N[C@H]1c1cccc(F)c1C (single isomer, unassigned) [Compound 105A]	15.2 µM
CCOC(=O)C1=C(CN2CC(F)(F)[C@@H]3CN(S(=O)(=O)[C@H]4C[C@](C)(C(=O)O)C4)C[C@@H]32)NC(c2nccs2)=N[C@H]1c1cccc(F)c1C (single isomer, unassigned) [Compound 205A]	> 50 µM
CCOC(=O)C1=C(CN2CC(F)(F)[C@H]3CN([C@@H](C)C(=O)O)C[C@H]32)NC(c2nccs2)=N[C@H]1c1cccc(F)c1C (single isomer, unassigned) [Compound 14F]	> 100 µM

====

test: Cytotoxicity determination in HepG2.2.15 cells (CCK-8 cell viability); format: cell-based; details: human, 6 days treatment, CCK-8 assay, highest concentration 100 uM

Compound	Rel	CC50 at 6 days / µM
CCOC(=O)C1=C(CN2CC(F)(F)[C@@H]3[C@H]2CON3C[C@@H](CC)C(=O)O)NC(c2nccs2)=N[C@H]1c1cccc(F)c1C (single isomer, unassigned) [Compound 178A]	>	50
CCOC(=O)C1=C(CN2CC(F)(F)[C@H]3[C@@H]2CCN3CC(C)(C)C(=O)O)NC(c2nccs2)=N[C@@H]1c1cccc(O)c1C (single isomer, unassigned)	=	39.5
CCOC(=O)C1=C(CN2CC(F)(F)C3C2CN(C(C)=O)N3CCC(C)(C)C(=O)O)NC(c2nccs2)=N[C@H]1c1cccc(F)c1C (some centres unmarked)	=	27.1
CCOC(=O)C1=C(CN2CC(F)(F)[C@H]3[C@@H]2CCN3[C@H]2CC[C@@H](C(=O)O)CC2)NC(c2nccs2)=N[C@H]1c1cccc(F)c1C (single isomer, unassigned) [Compound 104A]	=	16.1
CCOC(=O)C1=C(CN2CC(F)(F)[C@H]3CN(CC(C)C(=O)O)C[C@H]32)NC(c2nccs2)=N[C@H]1c1cccc(F)c1C (single isomer, unassigned) [Compound 15B]	>	100

====

Reported values of pEC50 for individual entries
system: HBV; test: Anti-HBV activity in HepG2.2.15 cells (HBV DNA in culture medium by qPCR); type: cell-based; details: Hepatitis B virus, HepG2.2.15, 144 h, HepG2.2.15 cells, 6 days treatment, HBV DNA in culture medium quantified by real-time PCR; read-out: EC50
pEC50: −log10 of the molar value.

Compound	Measured on	pEC50
CCOC(=O)C1=C(CN2CC(F)(F)[C@H]3CN(C[C@@H](C)C(=O)O)C[C@H]32)NC(c2nccs2)=N[C@H]1c1cccc(F)c1C (single isomer, unassigned) [Compound 15E]	HBV	7.65
CCOC(=O)C1=C(CN2CC(F)(F)[C@@H]3[C@H]2CON3CCC(C)(C)C(=O)O)NC(c2nccs2)=N[C@@H]1c1ccc(F)nc1C (single isomer, unassigned)	HBV	7.23
CCOC(=O)C1=C(CN2CC(F)(F)[C@H]3[C@@H]2CCN3CC(C)(C)C(=O)O)NC(c2nccs2)=N[C@@H]1c1cccc(O)c1C (single isomer, unassigned)	HBV	7.70
CCOC(=O)C1=C(CN2CC(F)(F)[C@H]3[C@@H]2CCN3CC[C@H]2C[C@@H](C(=O)O)C2)NC(c2nccs2)=N[C@H]1c1cccc(F)c1C (single isomer, unassigned) [Compound 129A]	HBV	8.11
CCOC(=O)C1=C(CN2CC(F)(F)[C@@H]3CN(S(=O)(=O)NC(C)=O)C[C@@H]32)NC(c2nccs2)=N[C@H]1c1cccc(F)c1C (single isomer, unassigned)	HBV	8.47
[2H]C([2H])([2H])N1C[C@@H]2[C@H](N1CCC(C)(C)C(=O)O)C(F)(F)CN2CC1=C(C(=O)OCC)[C@H](c2cccc(F)c2C)N=C(c2nccs2)N1 (single isomer, unassigned)	HBV	7.96
CCOC(=O)C1=C(CN2CC(F)(F)[C@@H]3C(=O)N(CC(C)(C)C(=O)O)C[C@@H]32)NC(c2nccs2)=N[C@H]1c1cccc(F)c1Cl (single isomer, unassigned)	HBV	8.39
CCOC(=O)C1=C(CN2CC(F)(F)[C@H]3[C@@H]2CN(C(C)=O)N3CCC(C)(C)C(=O)O)NC(c2nccs2)=N[C@H]1c1ccc(F)c(F)c1Cl (single isomer, unassigned) [Compound 77B]	HBV	7.82
CCOC(=O)C1=C(CN2CC(F)(F)[C@@H]3C(=O)N(CC4(C(=O)O)CC4)C[C@@H]32)NC(c2nccs2)=N[C@H]1c1cccc(F)c1C (single isomer, unassigned)	HBV	8.17
CCOC(=O)C1=C(CN2CC(F)(F)[C@@H]3CN(C(=O)CC(C)(C)C(=O)O)C[C@@H]32)NC(c2nccs2)=N[C@H]1c1cccc(F)c1C (single isomer, unassigned) [Compound 23B]	HBV	7.62

====

system: HBV; assay: Anti-HBV activity in HepG2.2.15 cells (HBV DNA in culture medium by qPCR); format: cell-based; details: Hepatitis B virus, HepG2.2.15, 144 h, HepG2.2.15 cells, 6 days treatment, HBV DNA in culture medium quantified by real-time PCR; read-out: EC50
pEC50: −log10 of the molar value.
Quantity measured: pEC50

Compound	Quantity measured	Meas value
CCOC(=O)C1=C(CN2CC(F)(F)[C@H]3[C@@H]2CCN3CC2(CC(=O)O)CC2)NC(c2nccs2)=N[C@H]1c1cccc(F)c1C (relative stereo)	pEC50	7.49
CCOC(=O)C1=C(CN2CC(F)(F)[C@@H]3CN(C(=O)CC(C)(C)C(=O)O)C(=O)[C@@H]32)NC(c2nccs2)=N[C@H]1c1cccc(F)c1C (single isomer, unassigned)	pEC50	7.87
CCOC(=O)C1=C(CN2CC(F)(F)[C@@H]3CN(C(C)(C)C(=O)O)C[C@@H]32)NC(c2nccs2)=N[C@H]1c1cccc(F)c1C (single isomer, unassigned)	pEC50	7.39
CCOC(=O)C1=C(CN2CC(F)(F)[C@H]3[C@@H]2CCN3C[C@H](C)C(=O)O)NC(c2nccs2)=N[C@H]1c1cccc(F)c1Cl (single isomer, unassigned) [Compound 149B]	pEC50	8.72
CCOC(=O)C1=C(CN2CC(F)(F)[C@H]3[C@@H]2CCN3c2ncc(C(=O)O)cn2)NC(c2nccs2)=N[C@H]1c1cccc(F)c1C (single isomer, unassigned)	pEC50	7.24
CCOC(=O)C1=C(CN2CC(F)(F)[C@H]3[C@@H]2CCN3CC[C@H]2C[C@@H]2C(=O)O)NC(c2nccs2)=N[C@H]1c1cccc(F)c1C (relative stereo)	pEC50	9.22
CCOC(=O)C1=C(CN2CC(F)(F)[C@@H]3[C@H]2CN(C=O)N3CCC(C)(C)C(=O)O)NC(c2nccs2)=N[C@H]1c1cccc(F)c1C (single isomer, unassigned)	pEC50	6.89
CCOC(=O)C1=C(CN2CC[C@H]3C(=O)N(CC(C)(C)C(=O)O)C[C@H]32)NC(c2nccs2)=N[C@H]1c1cccc(F)c1C (single isomer, unassigned) [Compound 25A]	pEC50	7.49
CCOC(=O)C1=C(CN2CC(F)(F)[C@@H]3CN(C4(C(=O)O)CC4)C(=O)C32)NC(c2nccs2)=N[C@H]1c1cccc(F)c1C (single isomer, unassigned)	pEC50	7.85
CCOC(=O)C1=C(CN2CC(F)(F)[C@H]3[C@@H]2CCN3C[C@@H](C)C(=O)O)NC(c2nccs2)=N[C@H]1c1ccc(F)cc1Cl (single isomer, unassigned) [Compound 135A]	pEC50	8.62
